Give TGI for every item shown.
# Tested on: DMS 114 small cell lung
# ASSAY_PROCEDURE: NCI tumour cell line growth inhibition, 48 h
// note: answer is a bare numeric in µM

Input line: // returns reported TGI for input "CN(C)CCSC(=Nc1ccccc1)n1cccc1"
Output line: 80.8

Input line: // returns reported TGI for input N#CC1=C(N)Oc2c(ccc3cccnc23)C1c1ccccc1 (stereo not given)
Output line: 7.98

----------
# System: HL-60(TB) leukemia
# ASSAY_PROCEDURE: NCI tumour cell line growth inhibition, 48 h
Give GI50 for every item shown.

Input line: // returns reported GI50 for input "CN1CCN(c2ccc(NC(=O)c3cncnc3Nc3ccc4c(ccn4Cc4cccc(F)c4)c3)cc2)CC1"
Output line: 673 nM

Input line: // returns reported GI50 for input "COc1ccc(-n2nc(C(=O)c3ccccc3)c3nn4c(=O)cc(-c5ccccc5)nc4nc32)cc1"
Output line: 29600 nM

Input line: // returns reported GI50 for input "COc1ccc(C(=O)c2cc(C)c(OC)c(C)c2)c(OC)c1OC(=O)C(Cl)Cl"
Output line: 25.1 nM

Input line: // returns reported GI50 for input "O=C1Nc2cc(-c3ccc(O)cc3)ccc2/C1=C/c1ccc[nH]1"
Output line: 228 nM

Input line: // returns reported GI50 for input "COc1cc(-c2cn(-c3ccc(F)cc3)c(=O)[nH]2)cc(OC)c1OC"
Output line: > 100000 nM

Input line: // returns reported GI50 for input "COc1ccc2c(ccc3oc([N+](=O)[O-])cc32)c1"
Output line: 51.4 nM

Input line: // returns reported GI50 for input "Nc1ncc(-c2ccc3ncnc(N4CCc5cc(F)c(Cl)cc54)c3c2)cc1C(F)(F)F"
Output line: 981 nM

Input line: // returns reported GI50 for input "COc1ccc(-n2nc(C(=O)NCC(=O)Nc3nc4cc(OC)ccc4s3)c3ccccc3c2=O)cc1"
Output line: > 100000 nM

Input line: // returns reported GI50 for input CCC1C[N+]2=C(c3cc(OC)c(OC)cc3CC2)c2c1cc1n2CCc2cc(OC)c(OC)cc2-1 (stereo not drawn)
Output line: 2470 nM

Input line: // returns reported GI50 for input "COc1cc(NC(=O)c2cc3ccccc3cc2O)c(OC)cc1Cl"
Output line: 1320 nM

Input line: // returns reported GI50 for input NC1=C(/C(N)=N/O)C(c2ccccc2)c2ccc3ccccc3c2O1 (stereo not drawn)
Output line: 275 nM

Input line: // returns reported GI50 for input CC1(C)CC(C(=O)OCCCCCCCCCCC[P+](c2ccccc2)(c2ccccc2)c2ccccc2)C(C)(C)N1O (stereo not drawn)
Output line: 35.5 nM

Input line: // returns reported GI50 for input O=C(Oc1c(Cl)c(Cl)c(Cl)c(Cl)c1Cl)C1CCCN1C(=O)OCc1ccccc1 (stereo not drawn)
Output line: 2420 nM

All values here come from PubChem BioAssay (NCI).
